Answer each item with its documented Potentiation fold.
Test system: Acinetobacter baumannii ATCC 17978
Experiment: microbe, parasite or virus in culture
Format: cell-based
Conditions: A. baumannii ATCC 17978; ratio MICcompound/MICcompound+polymyxin E
Experimental: Growth inhibition or killing of bacteria was investigated using conventional methods widely described in the scientific literature. Parameters such as the Minimum Inhibitory Concentration (MIC) were determined as described in Clinical Laboratory Standard Institute (CLSI) document M07 “Methods for Dilution Antimicrobial Susceptibility Tests for Bacteria That Grow Aerobically, 11th Edition” (2018). […]

query: # query: Potentiation fold of entry "CCCCn1c(=O)c(C(=O)N[C@@H](Cc2ccccc2)C(=O)OC(C)(C)C)c(O)c2nn(C)cc21"
result: ≥4

query: What does the data say about its Potentiation fold? Entry: "CC(C)n1c(=O)c(C(=O)NC2CCCCCCC2)c(O)c2nn(C)cc21"
result: ≥64

query: Look up Potentiation fold: "CCCCn1c(=O)c(C(=O)Nc2ccc(F)cc2)c(O)c2nn(C)cc21"
result: ≥16

query: What measured Potentiation fold goes with "CCCCCn1c(=O)c(C(=O)NC23CC4CC(CC(O)(C4)C2)C3)c(O)c2nn(CCO)cc21" ?
result: ≥128

query: Look up Potentiation fold for this compound: "CCCCn1c(=O)c(C(=O)NC23CC4CC(CC(C4)C2)C3)c(O)c2nn(CCO)cc21"
result: ≥64

query: Item under review: "CCCCCn1c(=O)c(C(=O)NC23CC4CC(CC(C4)C2)C3)c(O)c2nn(CCO)cc21" . Reported Potentiation fold?
result: ≥16

query: // Potentiation fold lookup, key: "CCCCn1c(=O)c(C(=O)NC2CCCC2)c(O)c2nn(C)cc21"
result: ≥4

query: Name the reported Potentiation fold value associated with the compound "CCCCn1c(=O)c(C(=O)NC(C)(C)C)c(O)c2nn(CC)cc21"
result: ≥8

query: If you can, please state the reported Potentiation fold value of "CC(C)n1c(=O)c(C(=O)NC23CC4CC(CC(C4)C2)C3)c(O)c2nn(C)cc21" .
result: ≥64

query: # get_value(readout='Potentiation fold', item= "CC(C)n1c(=O)c(C(=O)NC(c2ccccc2)c2ccccc2)c(O)c2nn(C)cc21" )
result: ≥32

query: Which measured Potentiation fold value corresponds to "CCCCn1c2c(c(O)c(C(=O)NC34CC5CC(CC(C5)C3)C4)c1=O)N(CCO)NC2" ?
result: ≥16

query: Given the compound "CCCCn1c(=O)c(C(=O)NC(c2ccccc2)c2ccccc2)c(O)c2nn(C)cc21" , what is its reported Potentiation fold?
result: ≥16

query: Report Potentiation fold for "CCCCn1c(=O)c(C(=O)NC(C)(C)C)c(O)c2nn(C)cc21" please.
result: ≥8

query: Return reported Potentiation fold; argument: "CCCCn1c(=O)c(C(=O)NC2CCCCCCC2)c(O)c2nn(C)cc21"
result: ≥16

query: Item under review: "CCCCn1c(=O)c(C(=O)NC23CC4CC(CC(O)(C4)C2)C3)c(O)c2nn(C)cc21" . Reported Potentiation fold?
result: ≥16

query: Value lookup for Potentiation fold; key = CCCCn1c(=O)c(C(=O)NC2CCCc3ccccc32)c(O)c2nn(C)cc21 (stereo not shown)
result: ≥32

query: May I ask what Potentiation fold has been recorded for CC(C)n1c(=O)c(C(=O)NC2CCCc3ccccc32)c(O)c2nn(C)cc21 (stereo not shown) ?
result: ≥32

query: Requested field: Potentiation fold. Item: "CCCn1c(=O)c(C(=O)NC23CC4CC(CC(C4)C2)C3)c(O)c2nn(CCOC(C)=O)cc21"
result: ≥16

query: Given "CCCCn1c(=O)c(C(=O)NC23CC4CC(CC(C4)C2)C3)c(O)c2nn(C)cc21" , state its recorded Potentiation fold.
result: ≥128
